# Test system: MYB
# measurement-protocol: 3' UTR reporter interaction score (median-centred robust z-score of log2 firefly/Renilla activity); higher = less repression of the 3' UTR reporter
# reported-conditions: HEK293T; 48 h
We begin with a simple list: items and their reported 3' UTR reporter interaction score.
Respond numerically, and do not add a unit to the figure.

residue-string	3' UTR reporter interaction score
UAAUACUGCCUGGUAAUGAUGAC	-2.25
AACGCGCUUCCCUAUAGAGGG	-0.83
AAAACGGUGAGAUUUUGUUUU	0.737
GAUUGCUCUGCGUGCGGAAUCGAC	-0.474

Entry under review: `UAGAUAAAAUAUUGGUACCUG` . Reported 3' UTR reporter interaction score?
-0.19

// next record `AUAAGACGAGCAAAAAGCUUGU`
-1.19

----------
# System: MYB
# measurement-protocol: 3' UTR reporter interaction score (median-centred robust z-score of log2 firefly/Renilla activity); higher = less repression of the 3' UTR reporter
# reported-conditions: HEK293T; 48 h
measurement-kind: 3' UTR reporter interaction score
Quick one: just the number, no unit, thanks!

residue-string	3' UTR reporter interaction score
AAAGUGCUUCCUUUUAGAGGG	-0.541
CAUCUGGAGGUAAGAAGCACUUU	-2.31
AGACCCUGGUCUGCACUCUAU	0.748
AGUGACAUCACAUAUACGGCAGC	0.233
UAAAGUAAAUAUGCACCAAAA	-0.21
UAAGGUGCAUCUAGUGCAGAUA	0.537

Name the reported 3' UTR reporter interaction score value associated with the sequence `AGGCGGGGCGCCGCGGGACCGC`
-0.412

Follow-up item: `UACCCUGUAGAUCCGAAUUUGUG`
0.0301

----------
# Tested on: BRCA2
# measurement-protocol: 3' UTR reporter interaction score (median-centred robust z-score of log2 firefly/Renilla activity); higher = less repression of the 3' UTR reporter
# reported-conditions: HEK293T; 48 h
Note to self: values exactly at 0.02 are yes (1). So 3' UTR reporter interaction score at or above 0.02 is yes (1), below is no (0).

Please review the following examples before continuing.
residue-string	category
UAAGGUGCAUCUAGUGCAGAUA	no (0)
UUUGUUCGUUCGGCUCGCGUGA	yes (1)
UAAAUCCCAUGGUGCCUUCUCCU	yes (1)
AGAGGUAGUAGGUUGCAUAGU	yes (1)
UCUGCUCAUACCCCAUGGUUUCU	yes (1)
CAUCCCUUGCAUGGUGGAGGGU	no (0)
CUGUGCGUGUGACAGCGGCUGA	no (0)
AAAGACAUAGGAUAGAGUCACCUC	no (0)

Decide: is the reported value of 3' UTR reporter interaction score for `UAAUACUGUCUGGUAAAACCGU` equal to or greater than 0.02?
no (0)

Now the same for `UCUCUGGAGGGAAGCACUUUCUG`
yes (1)

And for `GUUCAAAUCCAGAUCUAUAAC` ?
yes (1)

Repeat for the following sequence: `ACUGCCCUAAGUGCUCCUUCU`
no (0)

Also, `AUCCUUGCUAUCUGGGUGCUA` please.
no (0)

What would you report for `CAAAGAAUUCUCCUUUUGGGCUU` ?
no (0)

Entry `AGUAUUCUGUACCAGGGAAGGU` please
yes (1)

----------
# System: MYB
# measurement-protocol: 3' UTR reporter interaction score (median-centred robust z-score of log2 firefly/Renilla activity); higher = less repression of the 3' UTR reporter
# reported-conditions: HEK293T; 48 h
Parameter threshold = -0.5. Response is rule met when 3' UTR reporter interaction score meets or exceeds it, else rule not met.

residue-string	category
UUCCCUUUGUCAUCCUAUGCCU	rule met
CAAAGCGCUUCUCUUUAGAGUG	rule met
AUCGGGAAUGUCGUGUCCGCC	rule not met
AUGUAUAAAUGUAUACACAC	rule not met
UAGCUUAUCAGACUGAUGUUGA	rule met

Could you verify whether the entry `ACCCUAUCAAUAUUGUCUCUGC` shows 3' UTR reporter interaction score of no less than -0.5?
rule met

Let us now turn to `UAGCAGCACAGAAAUAUUGGC`
rule not met

Another sequence: `GUGCAUUGCUGUUGCAUUGCA`
rule not met

Field entry: `UGUCUUGCAGGCCGUCAUGCA`
rule not met

One more sequence: `UAAGUGCUUCCAUGUUUGAGUGU`
rule not met

----------
# System: ZEB2
# measurement-protocol: 3' UTR reporter interaction score (median-centred robust z-score of log2 firefly/Renilla activity); higher = less repression of the 3' UTR reporter
# reported-conditions: HEK293T; 48 h
// reported 3' UTR reporter interaction score per item

See these solved cases before continuing.
residue-string	target-desc	3' UTR reporter interaction score
UGUGUCACUCGAUGACCACUGU	ZEB2	0.295
CAAAGUGCUCAUAGUGCAGGUAG	ZEB2	1.98
UUCAAGUAAUCCAGGAUAGGC	ZEB2	-0.465

Here is the next item to consider.
Could you share which 3' UTR reporter interaction score value was measured for `UGGCUCAGUUCAGCAGGAACAG` ?
0.984

----------
# System: NOTCH1
# measurement-protocol: 3' UTR reporter interaction score (median-centred robust z-score of log2 firefly/Renilla activity); higher = less repression of the 3' UTR reporter
# reported-conditions: HEK293T; 48 h
Tag: Y if measured 3' UTR reporter interaction score is not below -0.3, N if it is.

Example results:
residue-string	category
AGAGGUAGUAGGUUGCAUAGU	N
UCUACAGUGCACGUGUCU	Y

Answer whether 3' UTR reporter interaction score of `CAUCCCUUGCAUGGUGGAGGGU` is greater than or equal to -0.3.
Y

Try `ACAGUCUGCUGAGGUUGGAGC` next.
Y

Now this one: `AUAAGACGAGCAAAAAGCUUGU`
N

Queued: `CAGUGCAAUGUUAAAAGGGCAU`
Y

// repeat for `AAUAUAACACAGAUGGCCUGU` and report
Y

----------
sequences and their reported 3' UTR reporter interaction score
# Test system: MYB
# measurement-protocol: 3' UTR reporter interaction score (median-centred robust z-score of log2 firefly/Renilla activity); higher = less repression of the 3' UTR reporter
# reported-conditions: HEK293T; 48 h
// print number alone

# annotated cases, reported 3' UTR reporter interaction score shown
residue-string	measurement-kind	assay-value
GCUGCGCUUGGAUUUCGUCCCC	3' UTR reporter interaction score	0.616
CAGUAACAAAGAUUCAUCCUUGU	3' UTR reporter interaction score	0.361
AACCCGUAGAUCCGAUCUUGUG	3' UTR reporter interaction score	1.14
GCGUGCGCCGGCCGGCCGCC	3' UTR reporter interaction score	-0.399
CAAAGCGCUCCCCUUUAGAGGU	3' UTR reporter interaction score	-0.147

Which measured 3' UTR reporter interaction score belongs to `UCAGUCUCAUCUGCAAAGAAG` , tested on MYB?
-0.485

Do the same for `CAUAAAGUAGAAAGCACUAC` please
-0.0675

Moving on to the next sequence: `UAAUGCCCCUAAAAAUCCUUAU`
-1.05

----------
# Tested on: TP53
# measurement-protocol: 3' UTR reporter interaction score (median-centred robust z-score of log2 firefly/Renilla activity); higher = less repression of the 3' UTR reporter
# reported-conditions: HEK293T; 48 h
Parameter: 3' UTR reporter interaction score. Scope: all listed entries.
The response must contain the number and no unit.

Entry `AAUUGCACUUUAGCAAUGGUGA` has what 3' UTR reporter interaction score?
-1.5

// same read-out, input: `AAAGUGCAUCCUUUUAGAGGUUU`
0.429

Again, but for `UCUUGUGUUCUCUAGAUCAGU`
-0.0759

How about this sequence: `AACACACCUGGUUAACCUCUUU`
0.317

What would you report for `CUGGCCCUCUCUGCCCUUCCGU` ?
-0.27

Can you check `CUGGAUGGCUCCUCCAUGUCU` next?
0.127

Thanks! And `AACAGGUGACUGGUUAGACAA` ?
-0.34

Ok, now `GUCCCUCUCCAAAUGUGUCUUG`
0.415

What would you report for `UUCACAGUGGCUAAGUUCUGC` ?
-0.662

For `UUUUUGCGAUGUGUUCCUAAUA` then?
0.414

----------
Parameter 3' UTR reporter interaction score: see the listing below.
# Tested on: MYCN
# measurement-protocol: 3' UTR reporter interaction score (median-centred robust z-score of log2 firefly/Renilla activity); higher = less repression of the 3' UTR reporter
# reported-conditions: HEK293T; 48 h
Give the value as a plain number.

Sample answers from the record:
residue-string	3' UTR reporter interaction score
UAGCACCAUCUGAAAUCGGUU	-3.08
UGAUUGUCCAAACGCAAUUCU	0.178
CCACUGCCCCAGGUGCUGCUGG	0.562
UAAGUGCUUCCAUGUUUCAGUGG	0.305
UGGUAGACUAUGGAACGUA	0.966

Now examine the next entry.
Need 3' UTR reporter interaction score, item `UGUGCAAAUCCAUGCAAAACUGA`
-3.09

Each recorded value in this set is attributed to the supplement of paper PMC5844555.
